assayed.target: Calcium/calmodulin-dependent protein kinase type IV (Homo sapiens) (UniProt Q16566)
Sequence (Q16566 whole entry): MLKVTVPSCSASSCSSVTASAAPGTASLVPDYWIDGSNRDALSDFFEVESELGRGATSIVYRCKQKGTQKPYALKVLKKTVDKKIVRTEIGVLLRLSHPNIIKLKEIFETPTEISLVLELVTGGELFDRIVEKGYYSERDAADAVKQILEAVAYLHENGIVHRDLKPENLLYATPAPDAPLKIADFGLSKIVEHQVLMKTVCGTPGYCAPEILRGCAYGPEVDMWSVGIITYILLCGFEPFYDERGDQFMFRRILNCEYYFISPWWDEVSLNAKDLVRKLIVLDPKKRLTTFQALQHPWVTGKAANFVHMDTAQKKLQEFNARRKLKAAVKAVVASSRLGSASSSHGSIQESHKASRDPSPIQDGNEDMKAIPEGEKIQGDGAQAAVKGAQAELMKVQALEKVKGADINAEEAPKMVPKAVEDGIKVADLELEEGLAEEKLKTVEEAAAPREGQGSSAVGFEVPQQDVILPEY
# reported ΔTm; entries follow

compound: COc1ccc2c(c[n+](C)c3c4cc5c(cc4ccc23)OCO5)c1OC [CHELERYTHRINE CHLORIDE]
ΔTm [°C]: -0.6
//
compound: CCOc1ccc(/C=C2/SC(=O)N(CCN)C2=O)cc1 [HIAZOLIDINEDIONE1]
ΔTm [°C]: 0.4
//
compound: Nc1n[nH]c2nc3ccccc3nc12 [QUINOXALINE1]
ΔTm [°C]: 0.3
//
compound: CC(C)(C)n1nc(-c2cccc3ccccc23)c2c(N)ncnc21
ΔTm [°C]: -0.1
//
compound: CC[C@H](CO)Nc1nc(NCc2ccccc2)c2ncn(C(C)C)c2n1 [SELICICLIB]
ΔTm [°C]: 0.2
//
compound: CC(C)N(CCO)c1nc(Nc2cccc(Cl)c2)c2ncn(C(C)C)c2n1
ΔTm [°C]: 2.2
//
compound: Cn1cc(/C=C2/C(=O)Nc3ccc(S(N)(=O)=O)cc32)c2ccccc21
ΔTm [°C]: 1.1
//
compound: O=C(O)Cc1ccc(O)c([N+](=O)[O-])c1
ΔTm [°C]: 3.3
//
compound: Cc1ccc(NC(=O)c2ccc(CN3CCN(C)CC3)cc2)cc1Nc1nccc(-c2cccnc2)n1
ΔTm [°C]: -0.5
//
compound: N=C(N)NCCNS(=O)(=O)c1cccc2cnccc12
ΔTm [°C]: -0.3
